biological target: human 5-hydroxytryptamine-2C (h5-HT2C) receptor (Homo sapiens, UniProt P28335); construct: expressed in transfected cells; host or cells: CHO (Chinese Hamster Ovary) cells; membranes; test: [125I]DOI binding to membranes of CHO cells expressing the human 5-HT2C receptor; conditions: [125I]DOI radioligand, CHO cell membranes, room temperature 60 min; read-out: 5-HT2C Affinity Ki
parameter: Ki (nM)
Give the value, in units of nM, as a plain number.

Enquiry: human 5-hydroxytryptamine-2C (h5-HT2C) receptor (Homo sapiens, UniProt P28335) / Ki / CNCC1Cc2cc(-c3ccccc3)cc(-c3cccc(Cl)c3)c2O1 (racemic) : value?
Return: 1600

----------
Molecular target: human 5-HT2C receptor (Homo sapiens, UniProt P28335)
Sequence (P28335 33-458): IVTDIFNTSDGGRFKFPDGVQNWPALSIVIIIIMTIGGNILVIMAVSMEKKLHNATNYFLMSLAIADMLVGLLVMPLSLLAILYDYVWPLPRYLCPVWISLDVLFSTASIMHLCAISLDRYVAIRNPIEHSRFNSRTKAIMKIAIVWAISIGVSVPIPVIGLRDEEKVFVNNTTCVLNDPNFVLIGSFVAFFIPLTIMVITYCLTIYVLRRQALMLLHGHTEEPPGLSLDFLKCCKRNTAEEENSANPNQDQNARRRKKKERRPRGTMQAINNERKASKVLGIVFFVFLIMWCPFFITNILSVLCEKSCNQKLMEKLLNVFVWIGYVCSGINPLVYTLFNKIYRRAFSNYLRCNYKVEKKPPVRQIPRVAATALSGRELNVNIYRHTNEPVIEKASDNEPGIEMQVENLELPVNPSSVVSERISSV
Test: 5-HT2C receptor-stimulated calcium mobilization (FLIPR) in CHO cells
Type: cell-based
Details: calcium mobilization, CHO cells stably expressing human 5-HT2C; read-out: 5-HT2C Function EC50
Checkbox rule: EC50 lower than 50 nM = yes (1); EC50 not lower than 50 nM = no (0).

> print(dat)
                                   compound   label
1  CNCC1Cc2cc(OC)cc(-c3cc(F)ccc3F)c2O1 (racemic) [Example 498]  no (0)
2  NCC1Cc2cccc(C3CCCC3)c2O1 (single isomer, unassigned; (+)) [Example 10]  no (0)

Enquiry: Determine if NCC1Cc2cccc(-c3ccccc3Cl)c2O1 (single isomer, unassigned; (+)) [Example 130] shows EC50 strictly lower than 50 nM.
Return: no (0)

Enquiry: Would you kindly repeat that for COc1ccc(C)cc1-c1cc(F)cc2c1OC(CN)C2 (racemic) [Example 225] ?
Return: yes (1)

Enquiry: And the next one, Cc1cccc(-c2cccc3c2OC(CN)C3)c1 (single isomer, unassigned; (+)) [Example 42] ?
Return: no (0)

Enquiry: Then what about the compound Cc1ccccc1-c1cc(Cl)cc2c1OC(CN)C2 (single isomer, unassigned; (-)) [Example 97] ?
Return: no (0)

Enquiry: Similarly, COc1ccc(OC)c(-c2cc(F)cc3c2OC(CN)C3)c1 (racemic) [Example 223] ?
Return: yes (1)

----------
Target: human 5-HT2C receptor (Homo sapiens, UniProt P28335)
Sequence (P28335 33-458): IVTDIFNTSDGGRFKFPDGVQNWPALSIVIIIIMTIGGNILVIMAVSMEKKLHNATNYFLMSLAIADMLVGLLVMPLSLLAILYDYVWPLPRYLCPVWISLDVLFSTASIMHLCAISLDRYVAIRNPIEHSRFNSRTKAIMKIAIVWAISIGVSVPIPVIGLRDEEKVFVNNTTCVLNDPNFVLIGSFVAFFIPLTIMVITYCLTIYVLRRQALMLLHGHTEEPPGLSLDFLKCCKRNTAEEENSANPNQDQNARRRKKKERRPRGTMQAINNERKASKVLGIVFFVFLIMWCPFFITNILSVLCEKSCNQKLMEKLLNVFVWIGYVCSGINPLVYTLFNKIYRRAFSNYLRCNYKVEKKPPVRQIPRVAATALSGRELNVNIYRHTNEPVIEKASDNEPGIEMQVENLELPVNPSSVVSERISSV
Experiment: 5-HT2C receptor-stimulated calcium mobilization (FLIPR) in CHO cells;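 further: Fluo-3-AM fluorescence read on FLIPR every 1 s, agonist added after 10 baseline reads, response taken as peak minus lowest raw fluorescence count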
Assay type: cell-based
Conditions: CHO, percentage of the response observed with a maximally effective concentration of 5-HT; read-out: 5-HT2C Function Emax (%)
parameter: Emax (%)
Reply numerically in %, unit not repeated.

> print(dat)
                                   compound                             assayedsystem  parameter  observedvalue
1  CNCC1Cc2cccc(-c3ccc(F)cc3F)c2O1 (racemic)  human 5-HT2C receptor (Homo sapiens, UniProt P28335)       Emax             90
2  CNCC1Cc2cccc(-c3cccc(C)c3)c2O1 (racemic)  human 5-HT2C receptor (Homo sapiens, UniProt P28335)       Emax             60
3  COc1cc2c(c(-c3ccccc3OC)c1)OC(CN)C2 (racemic)  human 5-HT2C receptor (Homo sapiens, UniProt P28335)       Emax             90
4  COc1ccc(Cl)cc1-c1cccc2c1OC(CN)C2 (racemic)  human 5-HT2C receptor (Homo sapiens, UniProt P28335)       Emax            100

# next compound below
Enquiry: What does the record list as Emax for COc1cccc(-c2cccc3c2OC(CN)C3)c1 (racemic) [Example 68] ?
Return: 90
